measuredOn: HLA-B*57:01
assayProcedure: IEDB peptide-MHC binding, purified MHC/direct/fluorescence; filed as Kd, often an IC50 or EC50 that approximates it; bounds were set here for any values at or beyond the usual limits of such assays
runConditions: source organism: Escherichia coli O157:H7

- itemSequence: "KTTIKFHPW"
  Kd: "215 nM"

###

measuredOn: HLA-B*58:01
assayProcedure: IEDB peptide-MHC binding, purified MHC/direct/fluorescence; filed as Kd, often an IC50 or EC50 that approximates it; bounds were set here for any values at or beyond the usual limits of such assays
runConditions: source organism: Influenza A virus (A/Hong Kong/514/97(H5N1))
pKd: −log10 of the molar value.

- itemSequence: "VSDGGPNLY"
  pKd: 6.26

###

measuredOn: HLA-A*29:02
assayProcedure: IEDB peptide-MHC binding, purified MHC/competitive/fluorescence; filed as Kd, often an IC50 or EC50 that approximates it; bounds were set here for any values at or beyond the usual limits of such assays
runConditions: source organism: Vibrio cholerae 2740-80
quantityKind: Kd

- itemSequence: "CERYGFPAS"
  quantityKind: "Kd"
  result: "≥ 20 µM"

###

measuredOn: HLA-B*07:02
assayProcedure: IEDB peptide-MHC binding, purified MHC/competitive/radioactivity; filed as Kd, often an IC50 or EC50 that approximates it; bounds were set here for any values at or beyond the usual limits of such assays
runConditions: source organism: Vaccinia virus WR
quantityKind: Kd (nM)

- itemSequence: "RLLIWAYLSK"
  measuredOn: "HLA-B*07:02"
  quantityKind: "Kd"
  censorSymbol: "≥"
  resultNumber: 69600
- itemSequence: "QIFEVYWYL"
  measuredOn: "HLA-B*07:02"
  quantityKind: "Kd"
  censorSymbol: "="
  resultNumber: 16100
- itemSequence: "DPEKFNARM"
  measuredOn: "HLA-B*07:02"
  quantityKind: "Kd"
  censorSymbol: "≥"
  resultNumber: 66700
- itemSequence: "TPNNLNKIQL"
  measuredOn: "HLA-B*07:02"
  quantityKind: "Kd"
  censorSymbol: "="
  resultNumber: 64.9
- itemSequence: "TVLGLGLSLK"
  measuredOn: "HLA-B*07:02"
  quantityKind: "Kd"
  censorSymbol: "≥"
  resultNumber: 69600
- itemSequence: "MPYNILDRII"
  measuredOn: "HLA-B*07:02"
  quantityKind: "Kd"
  censorSymbol: "="
  resultNumber: 265
- itemSequence: "MPEKRNVVV"
  measuredOn: "HLA-B*07:02"
  quantityKind: "Kd"
  censorSymbol: "="
  resultNumber: 1.8

###

measuredOn: HLA-A*69:01
assayProcedure: IEDB peptide-MHC binding, purified MHC/competitive/fluorescence; filed as Kd, often an IC50 or EC50 that approximates it; bounds were set here for any values at or beyond the usual limits of such assays
runConditions: source organism: Escherichia coli B171
pKd: −log10 of the molar value.
quantityKind: pKd

- itemSequence: "KAIIDTAQF"
  measuredOn: "HLA-A*69:01"
  result: "≤ 4.70"

###

measuredOn: HLA-B*15:09
assayProcedure: IEDB peptide-MHC binding, purified MHC/direct/fluorescence; filed as Kd, often an IC50 or EC50 that approximates it; bounds were set here for any values at or beyond the usual limits of such assays
runConditions: source organism: Variola virus

- itemSequence: "YTDLTYQSF"
  Kd: "≥ 20 µM"
